assay: chemical genetic growth profiling, strain panel (AID 1159580);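 further: tested at 20 µM; growth read once vehicle control cultures reached saturation at 30 °C; 1 = growth at the plate median or of vehicle wells; lower values mean less growth of the strain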; conditions: S. cerevisiae deletion strains, growth OD, locus YJR066W, strain TOR1, stronger effect = lower value
The whole screen tested about 5,500 compounds, of which about 2,000 (36%) were called active. Another 18% or so got no clear call; they are omitted. The list shows a part of the results.
Assay endpoint: normalized growth
Lab note: jot down the number only; don't add units.

Query :: Reported normalized growth, compound CC(C)NCC(O)c1ccc2ccccc2c1 (stereo not drawn) : ____
Result :: 0.936

Query :: Then CN1C(CC(=O)c2ccccc2)CCCC1CC(O)c1ccccc1 (stereo not drawn) ?
Result :: 0.935

Query :: And CC(=O)O[C@@H]1C[C@@]2(C)[C@H](c3ccoc3)C[C@H]3O[C@]32[C@]2(C)C(=O)C(O)=C3C(C)(C)C(=O)C=C[C@]3(C)C12 (stereo partly drawn) ?
Result :: 0.888

Query :: Same again, this time with O=c1[nH]c(=O)n(C2C[C@@H](O)[C@@H](CO)O2)cc1F (stereo partly drawn)
Result :: 0.932

Query :: Subsequent entry: O=C1CSC(c2cccnc2)N1c1ccc(Cl)cc1Cl (stereo not drawn)
Result :: 0.837

Query :: Same for FC(F)(F)c1cccc(NNC(=S)Nc2ccccc2)c1
Result :: 0.861

Query :: Next compound: O=[N+]([O-])c1cc(Br)cnc1Sc1nnc(SCC2CC2)s1
Result :: 0.621

Query :: Item: CC(C)c1ccc(NCC(O)CSc2ccccc2)cc1 (stereo not drawn)
Result :: 0.786

Query :: How about this compound: CCOC(=O)C1=C(N)OC2=C(C(=O)CC(C)(C)C2)C1c1ccc(Cl)cc1Cl (stereo not drawn)
Result :: 0.947

Query :: And what about the compound O=C(O)c1ccccc1Nc1ccccc1 ?
Result :: 0.392

Query :: Then COC(=O)C1=C(C)NC(C)=C(C(=O)OC)C1c1ccc(Cl)cc1Cl ?
Result :: 0.999

Query :: Let us now turn to O[N+]1=CC=CCC1=S.On1ccccc1=S.[Zn]
Result :: 0.00186

Query :: Likewise for O=C(c1ccc2ccccc2c1)N1CCN(c2ccnc3cc(Cl)ccc23)CC1 ?
Result :: 0.96

Query :: Lookup Fc1cccc(F)c1NC(=S)Nc1cc(C(F)(F)F)cc(C(F)(F)F)c1
Result :: 1.06

Query :: Please give the result for CC(=O)c1c(O)c(C)c(O)c2c1OC1=CC(=O)C(C(C)=O)C(=O)C12C (stereo not drawn) too.
Result :: 0.465

Query :: Moving on to the next compound: Oc1c(I)cc(Cl)c2cccnc12
Result :: 0.00414

Query :: Also Oc1c(Cl)cc(Cl)c2cccnc12 , if possible.
Result :: -0.00116

Query :: Entry Cc1c2c(=O)[nH]ncc2c(-c2ccccc2)n1-c1ccc([N+](=O)[O-])cc1 please
Result :: 0.954

Query :: Cc1ccsc1/C=C/C1=NCCCN1C , same question.
Result :: 0.967

Query :: For Cc1c(Nc2ncccc2C(=O)O)cccc1C(F)(F)F then?
Result :: 0.928

Query :: Record: CC1(C)C(=O)C=C[C@@]2(C)C1=C(O)C(=O)[C@]1(C)C2CC[C@@]2(C)[C@H](c3ccoc3)C[C@H]3O[C@]321 (stereo partly drawn)
Result :: 0.757

Query :: Then what about the compound O=C(Nc1ccc(C(F)(F)F)cc1)N1CCN(c2ccnc3cc(Cl)ccc23)CC1 ?
Result :: 1.11

Query :: Next entry: CC(C)(C)NCC(O)c1ccccc1Cl (stereo not drawn)
Result :: 0.921

Query :: Thanks! And CNc1ccccc1C(=O)O ?
Result :: 0.842

Query :: Now give it for Fc1cccc(Cl)c1CSc1nncn1-c1ccc(OCc2ccccc2)cc1 too.
Result :: 1.23

Query :: Now give it for FC(F)(F)c1cccc(NC(=S)Nc2ccccc2)c1 too.
Result :: 0.989

Query :: Proceed to CCCc1c(C(=O)NC2Cc3ccccc3C2)cnn1-c1ccccc1
Result :: 0.986

Query :: Follow-up entry: CC(C)c1ccc(N2C=Nc3ccc(C(C)C)cc3C2)cc1
Result :: 1

Query :: Note, next up: CCC(Cc1c(I)cc(I)c(N)c1I)C(=O)O (stereo not drawn)
Result :: 0.0664

Query :: Repeat with COC(=O)C[C@H]1C(C)(C)C(=O)[C@@H]2CC3=C4CC(=O)O[C@@H](c5ccoc5)[C@]4(C)CCC3[C@@]1(C)C2=O (stereo partly drawn)
Result :: 0.918

Query :: Further, for CN[C@H]1C[C@@H](N)[C@H](O)[C@@H](O[C@@H]2O[C@H](CO)[C@@H]3OC4(O[C@@H]3[C@@H]2O)O[C@H](C(N)CO)[C@H](O)[C@H](O)[C@H]4O)[C@@H]1O (stereo partly drawn) ?
Result :: 0.982

Query :: Please answer likewise for COc1cc2c(c(OC)c1OC)-c1ccc(OC)c(=O)cc1[C@@H](NC(C)=O)CC2
Result :: 0.988

Query :: Would you mind doing Nc1ncn([C@@H]2O[C@H](CO)[C@@H](O)[C@H]2O)c(=O)n1 as well?
Result :: 0.948

Query :: Please give the result for Nc1ncnc2c1ncn2[C@@H]1O[C@H](CO)[C@@H](O)[C@H]1O too.
Result :: 0.966

Query :: Let us now turn to C=C(CC)C(=O)c1ccc(OCC(=O)O)c(Cl)c1Cl
Result :: 0.708

Query :: Entry to check: CO[C@H]1/C=C/O[C@@]2(C)Oc3c(C)c(O)c4c(O)c(c5c(nc6cc(C)ccn65)c4c3C2=O)NC(=O)/C(C)=C\C=C\[C@H](C)[C@H](O)[C@@H](C)C(O)[C@@H](C)[C@H](OC(C)=O)[C@@H]1C (stereo partly drawn)
Result :: 0.982

Query :: Further, for O=[N+]([O-])/C=C/c1ccc(F)cc1 ?
Result :: 0.114

Query :: Cool, now CCOc1ccc(/C=C(\C)[N+](=O)[O-])cc1OC
Result :: 0.257

Query :: Then what about the compound C/C=C/c1ccc2c(c1)OCO2 ?
Result :: 0.948

Query :: Next entry: N#CC(C#N)=C/C=C(/Sc1ccc(F)c(Cl)c1)c1ccc(Cl)cc1
Result :: 0.781

Query :: // same read-out, input: Oc1c(Br)cc(Br)c2cccnc12
Result :: -4.7e-05

Query :: Another compound: CCCc1c(C(=O)Sc2ccccn2)cnn1-c1ccc(Cl)cc1
Result :: 0.87

Query :: Lookup NCCCC[C@H](N[C@@H](CCc1ccccc1)C(=O)O)C(=O)N1CCC[C@H]1C(=O)O
Result :: 0.969
